# System: COLO 205
# measurement_notes: NCI tumour cell line growth inhibition, 48 h
Activity calls are given as the source filed them. Cut-off read from the data, not from the text of the source: active = GI50 up to about 1.1 µM and inactive = higher.
Thanks in advance; please answer with one of these: 1 (active), 0 (inactive)

O=C1C2=C(c3ccccc31)C(c1ccccc1Cl)N1C(=O)CSC1=N2 (stereo not given)
0
CC(C)(C)OC(=O)NC(Cc1c[nH]cn1)C(=O)N1CCCC1C(N)=O (stereo not given)
0
CC(=O)OCCC[C@@H]1C(=C(C)C)CCC2[C@@]1(C)CC[C@@]1(C)C[C@](C)(CCC=C(C)C)CC[C@]21C (stereo not given in full)
0
c1ccc(/N=C(/Nc2ccccc2)N2CCCC2)cc1
0
CC(C)OC(=O)C1(C(C)C)CCc2ccc(C(=O)CCC(=O)O)cc21 (stereo not given)
0

Hi, sorry to bother you, what did the test record for COc1ccc2cc(NC(=O)Nn3cnnc3)ccc2c1 ? 0
